Ref: patent US20250027068

test-target: pooled human IgG (human IgG1,2,3 and 4)
Please respond with reported Enzyme Activity Endpoint Assay: Fab′2 for every item in the list.
Numbers only, in ng/µL.

>>> data_value("PRT-102 (protein) MANQEIRYSEVTPYHVTSVWTKGVTPPAKFTQGEDVFHAPYVANQGWYDITKTFNGKDDLLCGAATAGNMLHWWFDQNKEKIEAYLKKHPDKQKIMFGDQELLDVRKVINTKGDQTNSELFNYFRDKAFPGLSARRIGVMPDLVLDMFINGYYLNVYKTQTTDVNRTYQEKDRRGGIFDAVFTRGDQSKLLTSRHDFKEKNLKEISDLIKQELTEGKALGLSHTYANVRINHVINLWGADFDSNGNLKAIYVTDSDSNASIGMKKYFVGVNSAGKVAISAKEIKEDNIGAQVLGLFTLSTGQDSWNQTN")
607

Tell me Enzyme Activity Endpoint Assay: Fab′2 reported for PRT-331 (protein) MTITSVWTKGVTPPTPEDFRENNEDVLHAPYVANQGWYDITKTFDGKDNLLCGAATAGNMLHWWFDQNKEEIERYLKKHPEKQKIIFNNQELFDVKAAIDTKDSQTNSKLFDYFRDKAFPGLSARQLGVFPDLVLDMFINGYYLNLGKTQSTDVNRPYQDKDKRGGIFDAVFTRGVQTTLLTARHDLKNKGLNEISDLIKQELTEGKALALSHTYANVRINHVINLWGADFDAEGNLIAIYVTDSDANASIGMKKYFVGRNANGKVAISAKKIEGDNIGAQVLGLFTLSTGQDQWQKLS
954
